target: FLT3 (Homo sapiens, UniProt P36888); assay: Flt3 biochemical assay (AlphaScreen, recombinant enzyme); conditions: recombinant FLT3, ATP 100 μM, room temperature, 60 minutes
Sequence (P36888 564-993 limits assumed): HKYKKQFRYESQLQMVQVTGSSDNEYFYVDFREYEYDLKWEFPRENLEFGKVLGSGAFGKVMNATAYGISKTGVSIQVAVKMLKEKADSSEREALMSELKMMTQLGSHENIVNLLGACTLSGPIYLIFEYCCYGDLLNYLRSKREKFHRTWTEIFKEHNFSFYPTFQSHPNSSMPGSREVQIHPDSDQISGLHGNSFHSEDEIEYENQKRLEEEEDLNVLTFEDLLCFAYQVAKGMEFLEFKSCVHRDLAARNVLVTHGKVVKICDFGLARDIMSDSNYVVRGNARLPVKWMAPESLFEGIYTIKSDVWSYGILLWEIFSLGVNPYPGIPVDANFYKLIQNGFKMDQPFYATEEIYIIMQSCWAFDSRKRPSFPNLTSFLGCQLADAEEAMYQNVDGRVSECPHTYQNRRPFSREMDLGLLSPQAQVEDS

{"record_smiles": "N#Cc1cnc2[nH]cc(Cc3ccc(NCc4ccc(C(F)(F)F)nc4)nc3Cl)c2c1", "IC50": "< 100 nM"}
{"record_smiles": "COc1ccc(CNc2ccc(Cc3c[nH]c4ncc(Cl)cc34)cn2)cn1", "IC50": "< 100 nM"}
{"record_smiles": "COc1cnc2[nH]cc(Cc3ccc(NCc4ccccc4C(F)(F)F)nc3)c2c1", "IC50": "< 100 nM"}
{"record_smiles": "COc1cnc2[nH]cc(Cc3ccc(NCc4ccc(C(F)(F)F)nc4)nc3F)c2c1", "IC50": "< 10 nM"}
{"record_smiles": "Clc1ccc(Cl)c(CNc2ccc(Cc3c[nH]c4ncccc34)cn2)c1", "IC50": "< 1000 nM"}
{"record_smiles": "CN(C)c1ncccc1CNc1ccc(Cc2c[nH]c3ncccc23)cn1", "IC50": "< 100 nM"}
{"record_smiles": "Cc1cc(F)ccc1CNc1ccc(Cc2c[nH]c3ncccc23)cn1", "IC50": "< 100 nM"}
{"record_smiles": "COc1ccc(CNc2ccc(Cc3c[nH]c4ncc(C)cc34)cn2)cn1", "IC50": "< 100 nM"}

* * *

Reported IC50 values for the following compounds.
target: FLT3 (Homo sapiens, UniProt P36888); assay: Flt3 biochemical assay (AlphaScreen, recombinant enzyme); settings: recombinant FLT3, ATP 100 μM, room temperature, 60 minutes
recorded_metric: IC50

{"compound": "Fc1cccc(CNc2ncc(Cc3c[nH]c4ncc(Cl)cc34)cn2)c1 [Compound P-0442]", "reported_measurement": "< 100 nM"}
{"compound": "Fc1ccc(Cl)c(CNc2ncc(Cc3c[nH]c4ncc(Cl)cc34)cn2)c1 [Compound P-0408]", "reported_measurement": "< 1000 nM"}
{"compound": "COc1cnc2[nH]cc(Cc3ccc(NCc4cc(F)ccc4F)nc3)c2c1 [Compound P-0330]", "reported_measurement": "< 1000 nM"}

* * *

molecular target: FLT3 (Homo sapiens); assay: Flt3 biochemical assay (AlphaScreen, recombinant enzyme); conditions: recombinant FLT3, ATP 100 μM, room temperature, 60 minutes

{"compound": "Fc1ccc(CNc2nc(Cl)c(Cc3c[nH]c4ncc(Cl)cc34)s2)cc1 [Compound P-0195]", "IC50": "< 100 nM"}
{"compound": "C[C@H](Nc1ncc(Cc2c[nH]c3ncc(Cl)cc23)cn1)c1ccc(F)cc1 [Compound P-0428]", "IC50": "< 1000 nM"}
{"compound": "N#Cc1cnc2[nH]cc(Cc3ccc(NCc4cncc(F)c4)nc3F)c2c1 [Compound P-0415]", "IC50": "< 1000 nM"}
{"compound": "Fc1cnc2[nH]cc(Cc3ccc(NCc4c(F)cccc4F)nc3)c2c1 [Compound P-0333]", "IC50": "< 10000 nM"}
{"compound": "COc1ccc(CNc2ccc(Cc3c[nH]c4ncccc34)cn2)c(OC)n1 [Compound P-0370]", "IC50": "< 100 nM"}
{"compound": "CCc1ccccc1CNc1ccc(Cc2c[nH]c3ncccc23)cn1 [Compound P-0383]", "IC50": "< 1000 nM"}
{"compound": "Fc1cncc(CNc2ccc(Cc3c[nH]c4ncc(Cl)cc34)cn2)c1 [Compound P-0324]", "IC50": "< 1000 nM"}
{"compound": "FC(F)(F)c1ccc(CNc2ncc(Cc3c[nH]c4ncc(Cl)cc34)cn2)cn1 [Compound P-0429]", "IC50": "< 100 nM"}

* * *

target: FLT3 (Homo sapiens, UniProt P36888); test: Flt3 biochemical assay (AlphaScreen, recombinant enzyme); conditions: recombinant FLT3, ATP 100 μM, room temperature, 60 minutes
A collection of compounds and their measured IC50
recorded_metric: IC50

{"compound": "CNc1ncccc1CNc1ccc(Cc2c[nH]c3ncccc23)cn1 [Compound P-0385]", "reported_measurement": "< 1000 nM"}
{"compound": "COc1cnc2[nH]cc(Cc3ccc(NCc4ccc(OC)nc4)nc3)c2c1 [Compound P-0332]", "reported_measurement": "< 100 nM"}
{"compound": "COc1ccc(CNc2ccc(Cc3c[nH]c4ncc(C#N)cc34)cn2)cn1 [Compound P-0284]", "reported_measurement": "< 1000 nM"}
{"compound": "CN(C)c1ccccc1CNc1ncc(Cc2c[nH]c3ncc(Cl)cc23)cn1 [Compound P-0449]", "reported_measurement": "< 10 nM"}
{"compound": "CC(Nc1ncc(Cc2c[nH]c3ncc(Cl)cc23)cn1)c1ccc(Cl)cc1 (centres unmarked) [Compound P-0427]", "reported_measurement": "< 1000 nM"}
{"compound": "N#Cc1cnc2[nH]cc(Cc3ccc(NCc4ccc(Cl)cc4)nc3F)c2c1 [Compound P-0432]", "reported_measurement": "< 100 nM"}
{"compound": "COc1ccccc1CNc1ncc(Cc2c[nH]c3ncc(Cl)cc23)cn1 [Compound P-0433]", "reported_measurement": "< 1000 nM"}
{"compound": "Fc1ccc(C(F)(F)F)c(CNc2ncc(Cc3c[nH]c4ncc(Cl)cc34)cn2)c1 [Compound P-0391]", "reported_measurement": "< 10000 nM"}
